# measurement_description: Pharmacokinetic study comparing oral and sublingual administration of DHEA
# Assay type: in vivo, human
# setup_conditions: human; oral 50 mg; serum; read-out: time to peak levels of DHEA
# Method: FIG. 5: Hormonal levels in men and women after oral 50 mg DHEA (.cndot. and sublingual 50 mg. DHEA (.smallcircle. ). A pharmacokinetic study comparing oral and sublingual administration of DHEA was performed on the men and women subjects. DHEA, DHEAS, androstenedione, testosterone and dihydrotestosterone were measured by the immunoassay methods described above on serum specimens drawn at 30 minutes, 1 hour, 2 hours, 4 hours, 5 hours and 8 hours after dose administration. […]
property_name: Tmax

Asked: Find the recorded Tmax belonging to C[C@]12CC[C@H](O)CC1=CC[C@@H]1[C@@H]2CC[C@]2(C)C(=O)CC[C@@H]12 [DHEA, dehydroepiandrosterone] and report it.
Given back: ≤ 3 h
